Give measured MIC for each item. Keep answers brief.
# Test system: Acinetobacter baumannii
# method notes: Broth microdilution MIC (CLSI), Acinetobacter baumannii
# Format: cell-based
# condition parameters: Acinetobacter baumannii, AB1007, xeruborbactam 4 µg/ml; read-out: MIC
Numbers only, in µg/mL.

# count of solved cases: 3
| compound | units | result |
| --- | --- | --- |
| C[C@@H](O)[C@H]1C(=O)N2C(C(=O)O)=C(SCCN=CN)C[C@H]12 | µg/mL | 0.03 |
| CO/N=C(\C(=O)N[C@@H]1C(=O)N2C(C(=O)[O-])=C(C[N+]3(C)CCCC3)CS[C@H]12)c1csc(N)n1 [Cefepime] | µg/mL | 1 |
| C[C@H]1[C@H](NC(=O)/C(=N\OC(C)(C)C(=O)O)c2csc(N)n2)C(=O)N1S(=O)(=O)O | µg/mL | 16 |

Okay, now this compound:
Given CC1(C)[C@H](C(=O)O)N2C(=O)C[C@H]2S1(=O)=O , respond with its MIC.
2

----------
# system name: PBP1b (Pseudomonas aeruginosa, UniProt G3XD31)
# Sequence (G3XD31 entry or part of it): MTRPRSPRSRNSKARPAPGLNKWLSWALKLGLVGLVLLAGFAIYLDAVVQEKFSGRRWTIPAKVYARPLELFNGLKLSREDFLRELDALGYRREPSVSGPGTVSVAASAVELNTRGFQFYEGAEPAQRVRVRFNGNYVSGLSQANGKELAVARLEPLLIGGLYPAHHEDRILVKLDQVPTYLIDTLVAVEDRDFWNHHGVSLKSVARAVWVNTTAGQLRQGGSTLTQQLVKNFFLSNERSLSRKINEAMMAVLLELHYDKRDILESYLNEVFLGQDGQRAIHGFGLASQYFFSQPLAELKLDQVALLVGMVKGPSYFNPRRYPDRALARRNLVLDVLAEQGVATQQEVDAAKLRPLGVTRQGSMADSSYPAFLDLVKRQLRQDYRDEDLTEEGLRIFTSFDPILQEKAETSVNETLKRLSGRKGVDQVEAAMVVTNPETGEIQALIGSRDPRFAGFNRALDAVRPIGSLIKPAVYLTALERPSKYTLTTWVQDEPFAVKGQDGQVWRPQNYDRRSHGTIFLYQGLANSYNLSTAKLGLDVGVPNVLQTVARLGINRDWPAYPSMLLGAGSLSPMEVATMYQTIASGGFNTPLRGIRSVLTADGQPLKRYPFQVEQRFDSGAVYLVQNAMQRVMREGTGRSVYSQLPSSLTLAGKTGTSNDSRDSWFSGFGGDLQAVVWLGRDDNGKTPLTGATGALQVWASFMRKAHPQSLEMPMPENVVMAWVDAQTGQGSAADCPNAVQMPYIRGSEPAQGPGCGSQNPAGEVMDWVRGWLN
# method notes: Gel-based Bocillin FL competition PBP binding assay
# condition parameters: P. aeruginosa PAM3034 membranes; Bocillin FL step 0°C for xeruborbactam, 30°C for beta-lactams; read-out: Relative binding IC50, PBP1b
recorded metric: IC50 (µM)
Numbers only, in µM.

Given O=C(O)c1c(F)ccc2c1OB(O)[C@@H]1C[C@H]21 , respond with its IC50.
1.9

----------
# system name: PBP3 (Escherichia coli, UniProt P0AD68)
# Construct: endogenous in cells
# Sequence (P0AD68 whole entry): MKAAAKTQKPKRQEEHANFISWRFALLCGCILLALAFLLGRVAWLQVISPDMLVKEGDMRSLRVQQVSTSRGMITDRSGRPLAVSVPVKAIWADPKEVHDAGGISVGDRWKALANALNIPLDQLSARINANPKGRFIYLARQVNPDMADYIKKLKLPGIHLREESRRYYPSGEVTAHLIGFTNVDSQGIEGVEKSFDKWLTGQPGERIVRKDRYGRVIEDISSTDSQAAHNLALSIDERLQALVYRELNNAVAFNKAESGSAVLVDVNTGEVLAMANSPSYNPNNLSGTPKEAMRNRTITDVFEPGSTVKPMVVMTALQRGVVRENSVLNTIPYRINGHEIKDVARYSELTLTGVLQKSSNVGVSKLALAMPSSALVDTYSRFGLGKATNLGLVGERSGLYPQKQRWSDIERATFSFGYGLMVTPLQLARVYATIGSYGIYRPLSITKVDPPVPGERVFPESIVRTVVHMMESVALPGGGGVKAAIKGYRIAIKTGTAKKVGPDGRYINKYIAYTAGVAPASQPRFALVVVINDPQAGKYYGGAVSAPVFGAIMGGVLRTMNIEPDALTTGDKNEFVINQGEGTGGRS
# method notes: Gel-based Bocillin FL competition PBP binding assay
recorded metric: pIC50
Numbers only, as −log10 of the molar value.

Tell me pIC50 of O=C(O)c1c(F)ccc2c1OB(O)[C@@H]1C[C@H]21 [Xeruborbactam] when tested on PBP3 (Escherichia coli, UniProt P0AD68).
4.14

----------
# System: Pseudomonas aeruginosa
# method notes: Broth microdilution MIC (CLSI), Pseudomonas aeruginosa
# Format: cell-based
# condition parameters: Pseudomonas aeruginosa, strain PAM1034, nfxC (MexEF-OprN overexpression)
recorded metric: MIC (µg/mL)
Give bare numbers, in µg/mL.

# count of solved cases: 2
| structure string | result |
| --- | --- |
| O=C(NNC(=O)[C@@H]1CC[C@@H]2CN1C(=O)N2OS(=O)(=O)O)[C@@H]1CCCNC1 | 2 |
| C[C@@H](O)[C@H]1C(=O)N2C(C(=O)O)=C(S[C@@H]3CN[C@H](C(=O)N(C)C)C3)[C@H](C)[C@H]12 | 0.5 |

Given NCCONC(=O)[C@@H]1CC[C@@H]2CN1C(=O)N2OS(=O)(=O)O , respond with its MIC.
128

----------
# Test system: Pseudomonas aeruginosa
# method notes: Broth microdilution MIC (CLSI), Pseudomonas aeruginosa
# Type: cell-based
# condition parameters: Pseudomonas aeruginosa, strain PAM1020, wild type; read-out: MIC
recorded metric: MIC (µg/mL)
Answers are plain numbers, in µg/mL.

| compound | MIC [µg/mL] |
| --- | --- |
| O=C(O)c1c(F)ccc2c1OB(O)[C@@H]1C[C@H]21 [Xeruborbactam] | 256 |
| O=C(NNC(=O)[C@@H]1CC[C@@H]2CN1C(=O)N2OS(=O)(=O)O)[C@@H]1CCCNC1 [Zidebactam] | 2 |
| NCCONC(=O)[C@@H]1CC[C@@H]2CN1C(=O)N2OS(=O)(=O)O [Nacubactam] | 128 |

Okay, now this compound:
Given C[C@H]1[C@H](NC(=O)/C(=N\OC(C)(C)C(=O)O)c2csc(N)n2)C(=O)N1S(=O)(=O)O [Aztreonam] , respond with its MIC.
4

----------
Give measured MIC for each item. Keep answers brief.
# Test system: Escherichia coli
# method notes: Broth microdilution MIC (CLSI), Escherichia coli
# Type: cell-based
# condition parameters: EC1103; PBP2 same as MG1655, PBP3 YRIN ins, Q227H, E349K, I532L
One number for each entry.

# count of solved cases: 3
| structure string | recorded metric | result |
| --- | --- | --- |
| C[C@H]1[C@H](NC(=O)/C(=N\OC(C)(C)C(=O)O)c2csc(N)n2)C(=O)N1S(=O)(=O)O | MIC | 32 |
| O=C(NNC(=O)[C@@H]1CC[C@@H]2CN1C(=O)N2OS(=O)(=O)O)[C@@H]1CCCNC1 | MIC | 0.25 |
| CC1=C[C@@H]2CN(C(=O)N2OS(=O)(=O)O)[C@@H]1C(N)=O | MIC | 0.25 |

Okay, now this compound:
Tell me MIC of O=C(O)c1c(F)ccc2c1OB(O)[C@@H]1C[C@H]21 when tested on Escherichia coli.
8

----------
# system name: PBP1a (Escherichia coli)
# Construct: endogenous in cells; host or cells: Escherichia coli ECM5497 (MG1655), total membrane preparation
# method notes: Gel-based Bocillin FL competition PBP binding assay
recorded metric: pIC50
Answers are plain numbers, as −log10 of the molar value.

Given C[C@@H](O)[C@H]1C(=O)N2C(C(=O)O)=C(S[C@@H]3CN[C@H](C(=O)N(C)C)C3)[C@H](C)[C@H]12 , respond with its pIC50.
5.27

----------
# Test system: Acinetobacter baumannii
# method notes: Broth microdilution MIC (CLSI), Acinetobacter baumannii
# Type: cell-based
# condition parameters: Acinetobacter baumannii, strain ACM1014, ΔadeABC
# Source text: (i) Panels of engineered bacterial strains containing various combinations of porin and efflux mutations were used. The construction of all the strains used in the study is described in detail in references, [44], and [45]. (ii) KPC-producing clinical isolates and their derivatives that lost KPC plasmids were used also. These strains and their origins are described in the Table S2. (iii) Finally, KPC-producing clinical isolates enriched in strains with porin mutations were used. […]
Give measured MIC for each item. Keep answers brief.
One number for each entry, in µg/mL.

# count of solved cases: 4
| compound | result |
| --- | --- |
| C[C@H]1[C@H](NC(=O)/C(=N\OC(C)(C)C(=O)O)c2csc(N)n2)C(=O)N1S(=O)(=O)O [Aztreonam] | 16 |
| CO/N=C(\C(=O)N[C@@H]1C(=O)N2C(C(=O)[O-])=C(C[N+]3(C)CCCC3)CS[C@H]12)c1csc(N)n1 [Cefepime] | 1 |
| C[C@@H](O)[C@H]1C(=O)N2C(C(=O)O)=C(S[C@@H]3CN[C@H](C(=O)N(C)C)C3)[C@H](C)[C@H]12 [Meropenem] | 0.125 |
| CC1=C[C@@H]2CN(C(=O)N2OS(=O)(=O)O)[C@@H]1C(N)=O [Durlobactam] | 64 |

Tell me MIC of O=C(O)c1c(F)ccc2c1OB(O)[C@@H]1C[C@H]21 [Xeruborbactam] when tested on Acinetobacter baumannii.
16

----------
# Test system: Escherichia coli
# method notes: Broth microdilution MIC (CLSI), Escherichia coli
# Assay type: cell-based
# condition parameters: Escherichia coli, strain ECM5497, wild type; read-out: MIC
Give measured MIC for each item. Keep answers brief.
One number for each entry, in µg/mL.

# count of solved cases: 2
| compound | MIC / µg/mL |
| --- | --- |
| NCCONC(=O)[C@@H]1CC[C@@H]2CN1C(=O)N2OS(=O)(=O)O | 4 |
| CO/N=C(\C(=O)N[C@@H]1C(=O)N2C(C(=O)[O-])=C(C[N+]3(C)CCCC3)CS[C@H]12)c1csc(N)n1 [Cefepime] | 0.03 |

// for each compound below, give its MIC
1. C[C@H]1[C@H](NC(=O)/C(=N\OC(C)(C)C(=O)O)c2csc(N)n2)C(=O)N1S(=O)(=O)O
2. O=C(O)c1c(F)ccc2c1OB(O)[C@@H]1C[C@H]21

0.03
8

----------
# system name: PBP1a (Escherichia coli, UniProt P02918)
# Construct: endogenous in cells; host or cells: Escherichia coli ECM5497 (MG1655), total membrane preparation
# Sequence (P02918 whole entry): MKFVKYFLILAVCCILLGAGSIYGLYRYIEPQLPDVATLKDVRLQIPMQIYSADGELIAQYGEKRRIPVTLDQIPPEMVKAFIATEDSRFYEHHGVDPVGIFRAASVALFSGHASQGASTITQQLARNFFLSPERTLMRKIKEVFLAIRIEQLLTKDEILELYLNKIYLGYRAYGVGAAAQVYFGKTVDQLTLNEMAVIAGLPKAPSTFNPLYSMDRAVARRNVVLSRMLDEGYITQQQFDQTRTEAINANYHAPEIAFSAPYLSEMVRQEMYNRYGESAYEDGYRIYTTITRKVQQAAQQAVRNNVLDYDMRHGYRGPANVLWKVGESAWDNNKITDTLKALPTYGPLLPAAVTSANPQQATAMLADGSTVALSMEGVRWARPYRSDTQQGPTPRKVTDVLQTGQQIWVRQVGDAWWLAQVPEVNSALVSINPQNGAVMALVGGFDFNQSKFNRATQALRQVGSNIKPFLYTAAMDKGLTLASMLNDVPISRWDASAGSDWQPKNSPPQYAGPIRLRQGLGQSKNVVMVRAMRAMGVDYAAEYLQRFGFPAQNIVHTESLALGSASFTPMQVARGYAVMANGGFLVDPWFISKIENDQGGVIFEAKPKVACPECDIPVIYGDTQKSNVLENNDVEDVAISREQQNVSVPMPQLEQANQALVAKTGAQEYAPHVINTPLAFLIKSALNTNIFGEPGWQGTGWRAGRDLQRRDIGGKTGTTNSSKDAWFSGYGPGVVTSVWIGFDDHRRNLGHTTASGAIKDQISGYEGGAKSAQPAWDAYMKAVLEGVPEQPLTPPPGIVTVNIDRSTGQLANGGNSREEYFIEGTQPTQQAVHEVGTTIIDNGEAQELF
# method notes: Gel-based Bocillin FL competition PBP binding assay
# condition parameters: E. coli ECM5497 membranes; Bocillin FL step 0°C for xeruborbactam, 30°C for beta-lactams; read-out: Relative binding IC50, PBP1a
recorded metric: pIC50
Numbers only, as −log10 of the molar value.

Given O=C(O)c1c(F)ccc2c1OB(O)[C@@H]1C[C@H]21 , respond with its pIC50.
4.33

----------
# Test system: Pseudomonas aeruginosa
# method notes: Broth microdilution MIC (CLSI), Pseudomonas aeruginosa
# Assay type: cell-based
# condition parameters: Pseudomonas aeruginosa, strain PAM1032, nalB (MexAB-OprM overexpression)
recorded metric: MIC

| compound | system name | recorded metric | result |
| --- | --- | --- | --- |
| C[C@H]1[C@H](NC(=O)/C(=N\OC(C)(C)C(=O)O)c2csc(N)n2)C(=O)N1S(=O)(=O)O | Pseudomonas aeruginosa | MIC | 16 µg/mL |

// for each compound below, give its MIC
1. CO/N=C(\C(=O)N[C@@H]1C(=O)N2C(C(=O)[O-])=C(C[N+]3(C)CCCC3)CS[C@H]12)c1csc(N)n1 [Cefepime]
2. O=C(O)c1c(F)ccc2c1OB(O)[C@@H]1C[C@H]21
3. NCCONC(=O)[C@@H]1CC[C@@H]2CN1C(=O)N2OS(=O)(=O)O

1. 4 µg/mL
2. > 256 µg/mL
3. 128 µg/mL
